Data origin: PubChem BioAssay AID1529

# SYSTEM: Mitogen-activated protein kinase kinase kinase 3 (Homo sapiens)
# EXPERIMENT DESCRIPTION: modulators of MEKK3-MEK5 PB1 binding, primary screen, biochemical, wildtype MEKK3, multiplex bead flow cytometry, Alexa488-MEK5 (AID 1529);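 note: Alexa488 bead fluorescence after subtracting the streptavidin-only scavenger bead signal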
# ASSAY CONDITIONS: bead-based flow cytometry, Alexa488-MEK5 binding to MEKK3; at 10 µM; actives lie on both sides; 0 = blocked by unlabeled MEK5, 100 = vehicle
The whole screen tested about 290,000 compounds, of which about 4,200 (1.4%) were called active.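 Rule for the calls: active = binding response more than 3 SD above or below the average of its plate-row segment, actives on both sides; inconclusive = wells at one plate position flagged as instrument error; inactive = the rest.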 Only a selection was taken, and actives are over-represented in it overall.
Labels: True (active), False (inactive)

MOLECULE: CCOC(=O)c1sc2nc(C)nc(SCC(N)=O)c2c1C
CLASS LABEL: True
--
MOLECULE: COC(C[C@@H]1O[C@@H]1C(=O)[C@@H](C)OCc1ccccc1)OC
CLASS LABEL: False
--
MOLECULE: Brc1ccccc1C1N=C(c2ccccc2)NO1 (configuration not stated)
CLASS LABEL: False
--
MOLECULE: Cn1nccc1C(=O)NC1CCCc2c1cnn2-c1ccccc1F (configuration not stated)
CLASS LABEL: False
--
MOLECULE: COc1ccc(C(=O)NC(=S)N2CCCCC2c2cccnc2)cc1OC (configuration not stated)
CLASS LABEL: False
--
MOLECULE: O=C(COC(=O)CNC(=O)c1ccco1)Nc1ccc(F)cc1
CLASS LABEL: True
--
MOLECULE: Cc1c(C)c(C)c2[nH]c(=S)[nH]c2c1C
CLASS LABEL: False
